Target: HCV polymerase (NS5B) type 1a (Hepatitis C virus genotype 1a)
Construct: made in house; host or cells: Escherichia coli (by the 'similar method' of the 1b enzyme)
Test: Assay of enzyme (HCV polymerase) inhibitory activity, type 1a enzyme
Format: biochemical, HCV type 1a (cloned from the blood of patients)
Details: HCV polymerase inhibitory activity (IC50), 1a, type 1a enzyme 1.5 μg/ml, 25° C., 60 min
pIC50: −log10 of the molar value.
Parameter: pIC50

QUERY: Can you look up the measured pIC50 of CC(=O)N1CCN(S(=O)(=O)c2ccc(C(C)C)cc2)[C@@H](C(=O)NCCCN2CCCC2)C1 for me?
RESULT: < 6.00

QUERY: Can you look up the measured pIC50 of CC(=O)N1CCN(S(=O)(=O)c2ccc(C(C)C)cc2)C(C(=O)NCc2ccc([N+](=O)[O-])cc2)C1 (stereo not drawn) for me?
RESULT: < 6.00

QUERY: Can you look up the measured pIC50 of CCCc1ccc(CNC(=O)[C@H]2CN(c3cnc(C(=O)O)cn3)CCN2S(=O)(=O)c2ccc(OC(F)(F)F)cc2)c(Cl)c1 for me?
RESULT: > 7.00

QUERY: Can you look up the measured pIC50 of CCC(F)(F)c1ccc(CNC(=O)[C@H]2CN(C(=O)Nc3csc(C)n3)CCN2S(=O)(=O)c2ccc(OC(F)(F)F)cc2)cc1 for me?
RESULT: 6.00 to 7.00

QUERY: Can you look up the measured pIC50 of CC(C)(C)c1ccc(CNC(=O)[C@H]2CN(C(=O)Cc3ccncc3)CCN2S(=O)(=O)c2ccc(OC(F)(F)F)cc2)cc1 for me?
RESULT: > 7.00

QUERY: Can you look up the measured pIC50 of COC(=O)c1nc(Cl)c(N2CCN(S(=O)(=O)c3ccc(C(F)(F)F)cc3)[C@@H](C(=O)NCc3ccc(C(C)C)cc3)C2)nc1N for me?
RESULT: < 6.00
